Origin of values: patent US11090247B2

test system: human skin; assay: Skin irritation test of active ingredient (patch method, CTFA guidelines); format: in vivo; conditions: 1.0 wt %, 20 people, patch 24 hours; (±): slightly reddish than the periphery

{"compoundString": "O=C(O)CN1CCCN(CC(=O)O)CCN(CC(=O)O)CCCN(CC(=O)O)CC1", "Test result(number of subject) (±)": 2}
{"compoundString": "O=C(O)c1ccc(N(CCN(CCN(c2ccc(C(=O)O)o2)c2ccc(C(=O)O)o2)c2ccc(C(=O)O)o2)CCN(c2ccc(C(=O)O)o2)c2ccc(C(=O)O)o2)o1", "Test result(number of subject) (±)": 1}
{"compoundString": "O=C(O)c1cncc(N2CCN(c3cncc(C(=O)O)c3)CCN(c3cncc(C(=O)O)c3)CCN(c3cncc(C(=O)O)c3)CC2)c1", "Test result(number of subject) (±)": 0}
{"compoundString": "O=C(O)c1ccc(N2CCCN(c3ccc(C(=O)O)cc3)CCN(c3ccc(C(=O)O)cc3)CCCN(c3ccc(C(=O)O)cc3)CC2)cc1", "Test result(number of subject) (±)": 1}
{"compoundString": "O=C(O)c1ccc(N2CCN(c3ccc(C(=O)O)o3)CCN(c3ccc(C(=O)O)o3)CCN(c3ccc(C(=O)O)o3)CC2)o1", "Test result(number of subject) (±)": 2}
{"compoundString": "O=C(O)c1cncc(N2CCCN(c3cncc(C(=O)O)c3)CCN(c3cncc(C(=O)O)c3)CCCN(c3cncc(C(=O)O)c3)CC2)c1", "Test result(number of subject) (±)": 2}

###

tested on: human skin; assay: Skin irritation test of active ingredient (patch method, CTFA guidelines); assay type: in vivo; settings: 0.1 wt %, 20 people, patch 24 hours; (+): Apparent reddening than periphery

{"molecule": "O=C(O)c1ccc(N(CCN(CCN(c2ccc(C(=O)O)o2)c2ccc(C(=O)O)o2)c2ccc(C(=O)O)o2)CCN(c2ccc(C(=O)O)o2)c2ccc(C(=O)O)o2)o1", "Test result(number of subject) (+)": 0}
{"molecule": "O=C(O)c1cncc(N2CCCN(c3cncc(C(=O)O)c3)CCN(c3cncc(C(=O)O)c3)CCCN(c3cncc(C(=O)O)c3)CC2)c1", "Test result(number of subject) (+)": 0}
{"molecule": "O=C(O)c1ccc(N(CCN(CCN(c2ccc(C(=O)O)cc2)c2ccc(C(=O)O)cc2)c2ccc(C(=O)O)cc2)CCN(c2ccc(C(=O)O)cc2)c2ccc(C(=O)O)cc2)cc1", "Test result(number of subject) (+)": 0}
{"molecule": "C1CNCCNCCNCCN1", "Test result(number of subject) (+)": 0}
{"molecule": "O=C(O)CN1CCN(CC(=O)O)CCN(CC(=O)O)CCN(CC(=O)O)CC1", "Test result(number of subject) (+)": 0}
{"molecule": "O=C(O)CN1CCCN(CC(=O)O)CCN(CC(=O)O)CCCN(CC(=O)O)CC1", "Test result(number of subject) (+)": 0}
{"molecule": "O=C(O)CN(CCN(CCN(CC(=O)O)CC(=O)O)CC(=O)O)CCN(CC(=O)O)CC(=O)O", "Test result(number of subject) (+)": 0}
{"molecule": "O=C(O)c1ccc(N2CCN(c3ccc(C(=O)O)o3)CCN(c3ccc(C(=O)O)o3)CCN(c3ccc(C(=O)O)o3)CC2)o1", "Test result(number of subject) (+)": 0}
{"molecule": "O=C(O)c1ccc(N2CCN(c3ccc(C(=O)O)cc3)CCN(c3ccc(C(=O)O)cc3)CCN(c3ccc(C(=O)O)cc3)CC2)cc1", "Test result(number of subject) (+)": 0}
{"molecule": "NCCNCCNCCN [Trientine, Triethylenetetramine, reference compound]", "Test result(number of subject) (+)": 0}
{"molecule": "O=C(O)c1ccc(N2CCCN(c3ccc(C(=O)O)cc3)CCN(c3ccc(C(=O)O)cc3)CCCN(c3ccc(C(=O)O)cc3)CC2)cc1", "Test result(number of subject) (+)": 0}
{"molecule": "O=C(O)c1cncc(N2CCN(c3cncc(C(=O)O)c3)CCN(c3cncc(C(=O)O)c3)CCN(c3cncc(C(=O)O)c3)CC2)c1", "Test result(number of subject) (+)": 0}
{"molecule": "O=C(O)c1ccc(N2CCCN(c3ccc(C(=O)O)o3)CCN(c3ccc(C(=O)O)o3)CCCN(c3ccc(C(=O)O)o3)CC2)o1", "Test result(number of subject) (+)": 0}

###

assay: Formaldehyde removing ability test (GC); conditions: formaldehyde GC area after 30 min, 2.0% formaldehyde solution, 3 molar equivalents, room temperature

{"compoundString": "O=C(O)c1cncc(N2CCCN(c3cncc(C(=O)O)c3)CCN(c3cncc(C(=O)O)c3)CCCN(c3cncc(C(=O)O)c3)CC2)c1", "Area (mAU*min) 30 min": 0.174}
{"compoundString": "O=C(O)c1ccc(N2CCCN(c3ccc(C(=O)O)cc3)CCN(c3ccc(C(=O)O)cc3)CCCN(c3ccc(C(=O)O)cc3)CC2)cc1", "Area (mAU*min) 30 min": 0.171}
{"compoundString": "O=C(O)c1ccc(N2CCN(c3ccc(C(=O)O)o3)CCN(c3ccc(C(=O)O)o3)CCN(c3ccc(C(=O)O)o3)CC2)o1", "Area (mAU*min) 30 min": 0.168}
{"compoundString": "O=C(O)CN(CCN(CCN(CC(=O)O)CC(=O)O)CC(=O)O)CCN(CC(=O)O)CC(=O)O", "Area (mAU*min) 30 min": 0.170}
{"compoundString": "O=C(O)CN1CCN(CC(=O)O)CCN(CC(=O)O)CCN(CC(=O)O)CC1", "Area (mAU*min) 30 min": 0.179}
{"compoundString": "O=C(O)c1ccc(N(CCN(CCN(c2ccc(C(=O)O)o2)c2ccc(C(=O)O)o2)c2ccc(C(=O)O)o2)CCN(c2ccc(C(=O)O)o2)c2ccc(C(=O)O)o2)o1", "Area (mAU*min) 30 min": 0.173}

###

test system: human skin; assay: Skin irritation test of active ingredient (patch method, CTFA guidelines); format: in vivo; parameters: key: 0–0.1 none, 0.11–0.3 weak, 0.31–0.5 moderate, ≥0.51 strong irritation; conditions: 0.5 wt %, 20 people, patch 24 hours
# Degree of irritation per record follows

{"compound": "O=C(O)c1ccc(N2CCCN(c3ccc(C(=O)O)cc3)CCN(c3ccc(C(=O)O)cc3)CCCN(c3ccc(C(=O)O)cc3)CC2)cc1 [Embodiment 10]", "Degree of irritation": 0}
{"compound": "O=C(O)c1ccc(N2CCN(c3ccc(C(=O)O)cc3)CCN(c3ccc(C(=O)O)cc3)CCN(c3ccc(C(=O)O)cc3)CC2)cc1 [Embodiment 6]", "Degree of irritation": 0}
{"compound": "O=C(O)c1ccc(N(CCN(CCN(c2ccc(C(=O)O)cc2)c2ccc(C(=O)O)cc2)c2ccc(C(=O)O)cc2)CCN(c2ccc(C(=O)O)cc2)c2ccc(C(=O)O)cc2)cc1 [Embodiment 2]", "Degree of irritation": 0}
{"compound": "O=C(O)c1cncc(N2CCCN(c3cncc(C(=O)O)c3)CCN(c3cncc(C(=O)O)c3)CCCN(c3cncc(C(=O)O)c3)CC2)c1 [Embodiment 11]", "Degree of irritation": 0}
{"compound": "O=C(O)c1ccc(N2CCCN(c3ccc(C(=O)O)o3)CCN(c3ccc(C(=O)O)o3)CCCN(c3ccc(C(=O)O)o3)CC2)o1 [Embodiment 12]", "Degree of irritation": 0}
{"compound": "NCCNCCNCCN [Trientine, Triethylenetetramine, reference compound]", "Degree of irritation": 0.05}

###

system: human skin; assay: Skin irritation test of active ingredient (patch method, CTFA guidelines); assay type: in vivo; conditions: 1.0 wt %, 20 people, patch 24 hours; (±): slightly reddish than the periphery
valueType: Test result(number of subject) (±)

{"molecule": "O=C(O)c1ccc(N2CCCN(c3ccc(C(=O)O)o3)CCN(c3ccc(C(=O)O)o3)CCCN(c3ccc(C(=O)O)o3)CC2)o1", "valueType": "Test result(number of subject) (±)", "recordedValue": 1}
{"molecule": "C1CNCCNCCNCCN1", "valueType": "Test result(number of subject) (±)", "recordedValue": 1}
{"molecule": "O=C(O)c1ccc(N2CCN(c3ccc(C(=O)O)cc3)CCN(c3ccc(C(=O)O)cc3)CCN(c3ccc(C(=O)O)cc3)CC2)cc1", "valueType": "Test result(number of subject) (±)", "recordedValue": 1}
{"molecule": "O=C(O)c1ccc(N(CCN(CCN(c2ccc(C(=O)O)cc2)c2ccc(C(=O)O)cc2)c2ccc(C(=O)O)cc2)CCN(c2ccc(C(=O)O)cc2)c2ccc(C(=O)O)cc2)cc1", "valueType": "Test result(number of subject) (±)", "recordedValue": 1}
{"molecule": "O=C(O)CN(CCN(CCN(CC(=O)O)CC(=O)O)CC(=O)O)CCN(CC(=O)O)CC(=O)O", "valueType": "Test result(number of subject) (±)", "recordedValue": 4}
{"molecule": "O=C(O)CN1CCN(CC(=O)O)CCN(CC(=O)O)CCN(CC(=O)O)CC1", "valueType": "Test result(number of subject) (±)", "recordedValue": 1}
{"molecule": "NCCNCCNCCN [Trientine, Triethylenetetramine, reference compound]", "valueType": "Test result(number of subject) (±)", "recordedValue": 3}
